From: ChEMBL document CHEMBL2424524

Give measured MIC for each item. Keep answers brief.
Tested on: Bacillus subtilis
protocol-details: Antibacterial activity against Bacillus subtilis 168 by dilution technique
Format: functional
condition-notes: subsp. subtilis str. 168
Answers are plain numbers, in µg/mL.

CC(C)(O)[C@H]1CC[C@@](C)([C@H]2CC[C@]3(C)[C@@H]2C(=O)C[C@@H]2[C@@]4(C)CCC(=O)C(C)(C)[C@@H]4CC[C@]23C)O1 = 128

# ---- query molecule ----
IN: What does the record list as MIC for "CC(C)(O)[C@H]1CC[C@@](C)([C@H]2CC[C@]3(C)[C@@H]2[C@H](O)C[C@@H]2[C@@]4(C)CC[C@H](O)C(C)(C)[C@@H]4CC[C@]23C)O1" ?
OUT: 128
